- Target desc: JAK2 (Homo sapiens (Human))
- Sequence (O60674 whole entry): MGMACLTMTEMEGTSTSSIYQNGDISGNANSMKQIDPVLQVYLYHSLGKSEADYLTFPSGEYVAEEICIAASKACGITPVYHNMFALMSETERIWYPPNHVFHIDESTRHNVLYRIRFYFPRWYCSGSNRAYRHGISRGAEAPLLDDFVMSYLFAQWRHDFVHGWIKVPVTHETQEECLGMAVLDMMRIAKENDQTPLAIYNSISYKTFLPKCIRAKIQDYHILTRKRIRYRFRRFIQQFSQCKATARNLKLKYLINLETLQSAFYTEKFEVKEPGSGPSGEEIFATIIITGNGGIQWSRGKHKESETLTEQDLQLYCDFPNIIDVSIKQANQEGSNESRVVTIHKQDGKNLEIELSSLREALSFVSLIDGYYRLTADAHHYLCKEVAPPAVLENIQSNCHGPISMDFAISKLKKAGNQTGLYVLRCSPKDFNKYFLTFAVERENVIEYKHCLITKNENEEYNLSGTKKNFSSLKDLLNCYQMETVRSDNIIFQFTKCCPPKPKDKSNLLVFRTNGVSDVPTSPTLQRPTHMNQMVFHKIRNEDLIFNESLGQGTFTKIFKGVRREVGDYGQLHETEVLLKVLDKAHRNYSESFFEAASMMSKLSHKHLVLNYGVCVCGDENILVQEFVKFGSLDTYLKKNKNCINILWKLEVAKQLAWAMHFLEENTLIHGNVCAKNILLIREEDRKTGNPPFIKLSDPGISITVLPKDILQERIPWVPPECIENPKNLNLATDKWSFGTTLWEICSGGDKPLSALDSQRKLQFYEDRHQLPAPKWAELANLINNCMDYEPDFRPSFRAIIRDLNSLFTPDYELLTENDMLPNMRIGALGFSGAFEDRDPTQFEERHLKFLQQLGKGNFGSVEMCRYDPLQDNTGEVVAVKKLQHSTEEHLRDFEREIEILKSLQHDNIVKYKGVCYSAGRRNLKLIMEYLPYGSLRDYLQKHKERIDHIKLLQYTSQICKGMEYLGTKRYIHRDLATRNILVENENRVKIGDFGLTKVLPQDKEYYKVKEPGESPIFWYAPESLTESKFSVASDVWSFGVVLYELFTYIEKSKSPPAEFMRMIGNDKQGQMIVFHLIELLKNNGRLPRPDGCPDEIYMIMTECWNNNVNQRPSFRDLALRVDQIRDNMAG
pIC50: −log10 of the molar value.
Experimental readout: pIC50

Solved cases (5 shown):
Could you share which pIC50 value was measured for CCC(CC)n1cc(-c2nc(-c3cnn([C@@H](C)[C@@H](C)O)c3)cn3nccc23)cn1 (single isomer, unassigned) ?
7.00 to 8.00

Could you share which pIC50 value was measured for CCC(CC)n1cc(-c2nc(-c3cnn(C[C@@H](C)CO)c3)cn3nccc23)cn1 ?
7.00 to 8.00

Could you share which pIC50 value was measured for CC(C)n1cc(-c2nc(-c3cnn(C4CCNCC4)c3)cn3nccc23)cn1 ?
6.00 to 7.00

Could you share which pIC50 value was measured for CCC(CC)n1cc(-c2nc(-c3cnn(C[C@H](O)COC)c3)cn3nccc23)cn1 ?
7.00 to 8.00

Could you share which pIC50 value was measured for CC[C@@H]1CCC[C@@H]1n1cc(-c2nc(-c3cnn(C[C@@H](O)CO)c3)cn3nccc23)cn1 (single isomer, unassigned) ?
> 8.00

New cases:
Could you share which pIC50 value was measured for CCC(CC)n1cc(-c2nc(-c3cnn(C[C@@H](O)CN(C)C)c3)cn3nccc23)cn1 ?
7.00 to 8.00

---

Quick record: IC50, UniProtKB O60674.

Solved cases (2 shown):
Hello, I am looking for reported IC50 with UniProtKB O60674 for CC[C@H]1CCC[C@H]1n1cc(-c2nc(-c3cnn(C[C@@H](O)CO)c3)cn3nccc23)cn1 (single isomer, unassigned) . Could you help?
10 to 100 nM

Hello, I am looking for reported IC50 with UniProtKB O60674 for CCC(CC)n1cc(-c2nc(-c3cnn(C4CN(P(=O)(N(C)C)N(C)C)C4)c3)cn3nccc23)cn1 . Could you help?
10 to 100 nM

New cases:
Hello, I am looking for reported IC50 with UniProtKB O60674 for CCC(C1CC1)n1cc(-c2nc(-c3cnn(C[C@@H](O)CO)c3)cn3nccc23)cn1 (single isomer, unassigned) . Could you help?
100 to 1000 nM

---

- Target desc: JAK1 (Homo sapiens (Human), UniProt P23458)
- Sequence (P23458 whole entry): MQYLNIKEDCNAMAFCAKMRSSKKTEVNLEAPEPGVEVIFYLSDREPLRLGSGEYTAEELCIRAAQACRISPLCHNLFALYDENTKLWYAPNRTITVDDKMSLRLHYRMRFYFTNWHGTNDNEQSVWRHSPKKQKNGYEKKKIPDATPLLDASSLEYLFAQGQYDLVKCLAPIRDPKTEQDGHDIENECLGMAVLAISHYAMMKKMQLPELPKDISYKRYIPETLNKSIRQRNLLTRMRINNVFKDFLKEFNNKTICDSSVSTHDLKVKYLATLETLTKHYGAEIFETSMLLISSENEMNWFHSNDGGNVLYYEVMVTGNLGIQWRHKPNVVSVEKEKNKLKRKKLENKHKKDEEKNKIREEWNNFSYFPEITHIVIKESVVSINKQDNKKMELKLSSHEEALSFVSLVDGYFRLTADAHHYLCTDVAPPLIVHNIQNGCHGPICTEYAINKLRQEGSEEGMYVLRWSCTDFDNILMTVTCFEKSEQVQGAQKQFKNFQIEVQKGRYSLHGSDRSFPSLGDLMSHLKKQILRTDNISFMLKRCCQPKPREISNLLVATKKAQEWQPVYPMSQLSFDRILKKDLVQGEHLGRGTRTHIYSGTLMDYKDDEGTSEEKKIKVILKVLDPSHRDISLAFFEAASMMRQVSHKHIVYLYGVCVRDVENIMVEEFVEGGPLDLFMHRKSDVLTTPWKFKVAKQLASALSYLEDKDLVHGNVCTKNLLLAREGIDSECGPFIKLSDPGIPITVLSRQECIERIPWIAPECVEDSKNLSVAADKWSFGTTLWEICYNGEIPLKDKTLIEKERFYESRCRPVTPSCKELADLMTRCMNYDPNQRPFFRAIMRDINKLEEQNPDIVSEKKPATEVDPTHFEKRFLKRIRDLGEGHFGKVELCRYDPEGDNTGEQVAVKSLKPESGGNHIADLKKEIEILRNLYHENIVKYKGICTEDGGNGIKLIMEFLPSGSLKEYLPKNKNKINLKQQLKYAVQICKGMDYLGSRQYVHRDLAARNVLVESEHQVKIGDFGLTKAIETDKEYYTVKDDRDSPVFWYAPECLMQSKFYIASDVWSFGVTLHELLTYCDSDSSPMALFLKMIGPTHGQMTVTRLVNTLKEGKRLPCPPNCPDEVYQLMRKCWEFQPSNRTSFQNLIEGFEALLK
- Assay remarks: JAK1 Inhibition Assay (Example B, Omnia kinase fluorescence peptide substrate assay)
- Assay type: biochemical
pIC50: −log10 of the molar value.
Experimental readout: pIC50

Solved cases (3 shown):
Hello, I am looking for reported pIC50 with JAK1 (Homo sapiens (Human), UniProt P23458) for CC[C@@H](C)n1cc(-c2nc(-c3cnn(C(CO)CO)c3)cn3nccc23)cn1 [Example 85] . Could you help?
5.00 to 6.00

Hello, I am looking for reported pIC50 with JAK1 (Homo sapiens (Human), UniProt P23458) for CCC(CC)n1cc(-c2nc(-c3cnn(CC(=O)NC(C)C)c3)cn3nccc23)cn1 [Example 97] . Could you help?
6.00 to 7.00

Hello, I am looking for reported pIC50 with JAK1 (Homo sapiens (Human), UniProt P23458) for CCC(CC)n1cc(-c2nc(-c3cnn(C4CN(C(=O)[C@H]5C[C@H](O)C5)C4)c3)cn3nccc23)cn1 [Example 179] . Could you help?
5.00 to 6.00

New cases:
Hello, I am looking for reported pIC50 with JAK1 (Homo sapiens (Human), UniProt P23458) for CCC(CC)n1cc(-c2nc(-c3cnn(C[C@H]4C[C@@H](O)C4)c3)cn3nccc23)cn1 [Example 120] . Could you help?
6.00 to 7.00

Hello, I am looking for reported pIC50 with JAK1 (Homo sapiens (Human), UniProt P23458) for CCC(CC)n1cc(-c2nc(-c3cnn([C@@H]4CCCNC4)c3)cn3nccc23)cn1 [Example 29] . Could you help?
6.00 to 7.00

Hello, I am looking for reported pIC50 with JAK1 (Homo sapiens (Human), UniProt P23458) for CCC(CC)n1cc(-c2nc(-c3cnn(CC4(CO)COC4)c3)cn3nccc23)cn1 [Example 16] . Could you help?
7.00 to 8.00

Hello, I am looking for reported pIC50 with JAK1 (Homo sapiens (Human), UniProt P23458) for CCC(CC)n1cc(-c2nc(-c3cnn(C4CN(P(=O)(N(C)C)N(C)C)C4)c3)cn3nccc23)cn1 [Example 41] . Could you help?
6.00 to 7.00

---

- Target desc: JAK2 (Homo sapiens (Human))
pIC50: −log10 of the molar value.
Experimental readout: pIC50

Hello, I am looking for reported pIC50 with JAK2 (Homo sapiens (Human)) for CC(C)C[C@H](C)n1cc(-c2nc(-c3cnn(C[C@H](O)CO)c3)cn3nccc23)cn1 . Could you help?
6.00 to 7.00

---

- Target desc: JAK2 (Homo sapiens (Human))
pIC50: −log10 of the molar value.
pIC50: recorded values

Solved cases (3 shown):
Hello, I am looking for reported pIC50 with JAK2 (Homo sapiens (Human)) for CCC(CC)n1cc(-c2nc(-c3cnn([C@H](C)[C@H](C)O)c3)cn3nccc23)cn1 (single isomer, unassigned) . Could you help?
7.00 to 8.00

Hello, I am looking for reported pIC50 with JAK2 (Homo sapiens (Human)) for CC[C@H](CC(F)(F)F)n1cc(-c2nc(-c3cnn(C[C@@H](O)CO)c3)cn3nccc23)cn1 (single isomer, unassigned) . Could you help?
7.00 to 8.00

Hello, I am looking for reported pIC50 with JAK2 (Homo sapiens (Human)) for CCC(CC)n1cc(-c2nc(-c3cnn([C@H]4C[C@H](C(=O)N(C)C)C4)c3)cn3nccc23)cn1 . Could you help?
6.00 to 7.00

--- query ---
Hello, I am looking for reported pIC50 with JAK2 (Homo sapiens (Human)) for CCC(CC)n1cc(-c2nc(-c3cnn(C[C@@H](O)C(C)(C)O)c3)cn3nccc23)cn1 . Could you help?
7.00 to 8.00

---

- Target desc: JAK1 (Homo sapiens (Human))
- Assay remarks: JAK1 Inhibition Assay (Example B, Omnia kinase fluorescence peptide substrate assay)
- Type: biochemical
- Condition set: JAK1 Enzyme IC50 1 mM ATP, 1 mM ATP; averaged IC50 ranges
Experimental readout: IC50

Could you share which IC50 value was measured for CCC(CC)n1cc(-c2nc(-c3cnn(CC[C@@H](O)CO)c3)cn3nccc23)cn1 ?
100 to 1000 nM

Could you share which IC50 value was measured for CCC(CC)n1cc(-c2nc(-c3cnn(C[C@H](O)CNC)c3)cn3nccc23)cn1 ?
1000 to 10000 nM

Could you share which IC50 value was measured for CCC(CC)n1cc(-c2nc(-c3cnn([C@@H](C)[C@H](C)O)c3)cn3nccc23)cn1 (single isomer, unassigned) ?
100 to 1000 nM

Could you share which IC50 value was measured for CCC(CC)n1cc(-c2nc(-c3cnn([C@@H](C)CO)c3)cn3nccc23)cn1 [compound 126] ?
100 to 1000 nM

Could you share which IC50 value was measured for CC(C)C[C@H](C)n1cc(-c2nc(-c3cnn(C[C@H](O)CO)c3)cn3nccc23)cn1 ?
1000 to 10000 nM

Could you share which IC50 value was measured for CCC(CC)n1cc(-c2nc(-c3cnn(C4CN(C(=O)CN5CCCC5)C4)c3)cn3nccc23)cn1 ?
100 to 1000 nM

Could you share which IC50 value was measured for CC[C@@H](C1CCC1)n1cc(-c2nc(-c3cnn(C[C@@H](O)CO)c3)cn3nccc23)cn1 (single isomer, unassigned) ?
100 to 1000 nM

Could you share which IC50 value was measured for CC1(C)CCC[C@@H]1n1cc(-c2nc(-c3cnn(C[C@@H](O)CO)c3)cn3nccc23)cn1 ?
1000 to 10000 nM

Could you share which IC50 value was measured for CCC(CC)n1cc(-c2nc(-c3cnn([C@H]4C[C@@H](O)C4)c3)cn3nccc23)cn1 ?
100 to 1000 nM

Could you share which IC50 value was measured for CCC(C(=O)O)n1cc(-c2nc(-c3cnn(C)c3)cn3nccc23)cn1 (stereo not drawn) ?
1000 to 10000 nM

Could you share which IC50 value was measured for CCC[C@H](C)n1cc(-c2nc(-c3cnn(C[C@H](O)CO)c3)cn3nccc23)cn1 ?
100 to 1000 nM

Could you share which IC50 value was measured for CC[C@H](C)n1cc(-c2nc(-c3cnn(C[C@@H](O)CO)c3)cn3nccc23)cn1 ?
100 to 1000 nM

Could you share which IC50 value was measured for CCC(CC)n1cc(-c2nc(-c3cnn(C[C@@H](O)CNC)c3)cn3nccc23)cn1 ?
1000 to 10000 nM

Could you share which IC50 value was measured for CCC(CC)n1cc(-c2nc(-c3cnn(C[C@@H](O)[C@@H](C)O)c3)cn3nccc23)cn1 ?
100 to 1000 nM

Could you share which IC50 value was measured for CCC(CC)n1cc(-c2nc(-c3cnn(C[C@@H](O)CN4CC(OC)C4)c3)cn3nccc23)cn1 ?
1000 to 10000 nM

Could you share which IC50 value was measured for CCC(CC)n1cc(-c2nc(-c3cnn(C[C@@H](CO)N(C)C)c3)cn3nccc23)cn1 ?
100 to 1000 nM

Could you share which IC50 value was measured for CCC(CC)n1cc(-c2nc(-c3cnn(CCN(C)S(C)(=O)=O)c3)cn3nccc23)cn1 ?
100 to 1000 nM

Could you share which IC50 value was measured for CCC[C@@H](C)n1cc(-c2nc(-c3cnn(C[C@H](O)CO)c3)cn3nccc23)cn1 ?
1000 to 10000 nM

Could you share which IC50 value was measured for CCC(CC)n1cc(-c2nc(-c3cnn(C4CN(C(=O)CN5CC(O)C5)C4)c3)cn3nccc23)cn1 ?
1000 to 10000 nM

Could you share which IC50 value was measured for CC(C)C[C@@H](C)n1cc(-c2nc(-c3cnn(C[C@@H](O)CO)c3)cn3nccc23)cn1 ?
1000 to 10000 nM

Could you share which IC50 value was measured for CCC(CC)n1cc(-c2nc(-c3cnn(C[C@@H](C)CO)c3)cn3nccc23)cn1 ?
10 to 100 nM

Could you share which IC50 value was measured for CCC(CC)n1cc(-c2nc(-c3cnn(CC4(O)CCNCC4)c3)cn3nccc23)cn1 ?
1000 to 10000 nM

Could you share which IC50 value was measured for CC[C@@H](n1cc(-c2nc(-c3cnn(C[C@@H](O)CO)c3)cn3nccc23)cn1)C(C)(F)F (single isomer, unassigned) ?
1000 to 10000 nM
